B1: KCNAB2 (parent)
chain: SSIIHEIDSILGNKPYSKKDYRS

# Variants of: B1
# protocol_description: protein stability index of a GFP-peptide fusion (GPS, HEK-293T) (PSI 1-6); higher = more stable;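 also: lentivirally expressed fusions sorted by FACS into six bins by GFP to DsRed ratio, PSI derived from sequencing read proportions per bin multiplied by bin number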
# experimental_parameters: c terminus: native
measurement_name: protein stability index
Enter the number alone.

- variant_description: "I7D"
  observed_result: 4.4

State the recorded protein stability index for this entry: `L11N`
4

Another variant to check: `I10A`
4.13

Please answer likewise for `K18V`
2.59
